Recorded values, source ChEMBL document CHEMBL3885861.

- Species: Rattus norvegicus
- assay: Open TG-GATES - Regimen: Single
- Assay type: toxicity, organism-based, Sprague-Dawley
- Design: regimen Single, gender Male, age 6 weeks
- measurement_conditions: in vivo, po, 10 mg/kg, 3 h, tissue Plasma, route gavage, dose level Low
measure: K
Kindly format the answer as number then unit.

CC(C)OC(=O)C(C)(C)Oc1ccc(C(=O)c2ccc(Cl)cc2)cc1 [FENOFIBRATE]	4.2 meq/L
CN(C)CCCN1c2ccccc2CCc2ccc(Cl)cc21 [CLOMIPRAMINE]	4.3 meq/L
CC1=C(/C=C/C(C)=C/C=C/C(C)=C/CO)C(C)(C)CCC1 [RETINOL]	4.1 meq/L
CN(C)CCCN1c2ccccc2CCc2ccccc21 [IMIPRAMINE]	4.3 meq/L

# ---- query molecule ----
// Input: CN(C)CCN(Cc1cccs1)c1ccccn1 . Output its K only.
4.2 meq/L
